All figures here come from paper PMC5540273.

- Test system: MEK2
- Construct: gene MAP2K2
- Test settings: concentration: 1 μM, replicates: in singlicate; n = 1;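 also: KINOMEscan kinase panel screen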
Reported %Inh is given for each of the following compounds.
Experimental readout: %Inh (%)

[[record]]
structure_smiles = "C[C@@H]1CCN(C(=O)CO)C[C@@H]1N(C)c1ncnc2[nH]ccc12"
observed_result = 0

[[record]]
structure_smiles = "CSc1ccc(NC2=C(c3ccccc3Cl)C(=O)NC2=O)cc1"
observed_result = 3

[[record]]
structure_smiles = "Cc1ccc(NC(=O)c2cccc(C#N)c2)cc1-c1ccc(C(=O)Nc2ccncc2)cc1"
observed_result = 10

[[record]]
structure_smiles = "Clc1cccc(-c2nc(Nc3ccncc3)c3ccccc3n2)c1"
observed_result = 21

[[record]]
structure_smiles = "O=C(c1ccc(-c2cc(-c3c[nH]nc3-c3ccccn3)ccn2)cc1)N1CCCC1"
observed_result = 30

[[record]]
structure_smiles = "CN1c2ccc(-c3ccc(C(=O)NCCO)cc3)cc2-c2[nH]ncc2S1(=O)=O"
observed_result = 27

[[record]]
structure_smiles = "Fc1cccc(COc2ccc(Nc3ncnc4cc[nH]c34)cc2Cl)c1"
observed_result = 21

[[record]]
structure_smiles = "Nc1nc(-c2ccc3c(N)n[nH]c3c2)cc(N2CCC[C@@H](C(=O)Nc3ccccc3)C2)n1.O=C(O)C(F)(F)F.O=C(O)C(F)(F)F"
observed_result = 8

[[record]]
structure_smiles = "COC(=O)c1cccc(NC(=O)NCCNc2ccnc(Nc3ccc(F)cc3)n2)c1"
observed_result = 0


###

- Test system: SRMS
- Test settings: concentration: 1 μM, replicates: in singlicate; n = 1
Experimental readout: %Inh

[[record]]
compound = "COc1ccc(-c2oc3ncnc(N)c3c2-c2ccc(OC)cc2)cc1 [SB-589132]"
system_tested = "SRMS"
observed_result = "6%"

[[record]]
compound = "Cl.c1ccc(Cn2ncc3cc(Nc4ncnc5ccccc45)ccc32)cc1 [GW273749]"
system_tested = "SRMS"
observed_result = "0%"

[[record]]
compound = "COc1ccc(NC(=O)c2ccc(-c3cc(-c4nnc(C)o4)ccc3C)cc2)cc1 [GW595885]"
system_tested = "SRMS"
observed_result = "0%"

[[record]]
compound = "Cc1ccc(O)cc1Nc1cc(C(F)(F)F)nc2ccc(-c3ccncc3)cc12 [GW630823]"
system_tested = "SRMS"
observed_result = "0%"

[[record]]
compound = "COc1ccc(Nc2nccc(N3CCC(NC(=O)c4cccc(NC(C)=O)c4)C3)n2)cc1 (stereo not shown) [GSK1379732]"
system_tested = "SRMS"
observed_result = "9%"

[[record]]
compound = "Cl.O=S(=O)(c1cccc(F)c1)c1ccc(Nc2ncnc3cc(Br)sc23)cc1Cl [GSK306886]"
system_tested = "SRMS"
observed_result = "0%"

[[record]]
compound = "Cc1cc(N2CCC(NS(=O)(=O)c3ccc(F)cc3)CC2)nc(Nc2cccc(C#N)c2)n1.O=C(O)C(F)(F)F [GSK1653537]"
system_tested = "SRMS"
observed_result = "0%"

[[record]]
compound = "Fc1cccc(COc2ccc(Nc3ncnc4nn5ccccc5c34)cc2Cl)c1 [GW689066]"
system_tested = "SRMS"
observed_result = "0%"

[[record]]
compound = "c1ccc(-c2ccc3c(-c4ccnc(Nc5ccc6c(c5)OCCO6)n4)cnn3n2)cc1 [GW818941]"
system_tested = "SRMS"
observed_result = "0%"

[[record]]
compound = "Cl.c1ccc(Cn2ccc3cc(Nc4ncnc5ccccc45)ccc32)cc1 [GW275568]"
system_tested = "SRMS"
observed_result = "15%"

